Listed here are compounds together with their documented TGI.
System: HT29 colon
Experiment: NCI tumour cell line growth inhibition, 48 h

Below, each entry is followed by its recorded TGI result.
# compound, system, TGI
rows = [
    ("CC(=O)N1CCc2c([nH]c3ccc(Br)cc23)C1c1ccccc1 (configuration not stated)", "HT29 colon", "> 10 µM"),
    ("CCCCCCCCCCN(CCCCCCCCCC)CC(=O)c1ccc2cc(Br)c3ccccc3c2c1", "HT29 colon", "2.77 µM"),
]

Ask | Give measured TGI for "Cn1ccn2c3nc4ccccc4nc3c(=O)c(C#N)c12" (HT29 colon).
Reply | > 100 µM

Ask | Give measured TGI for CC(C(=O)ON1C(=O)CCC1=O)c1ccc(C(=O)c2ccccc2)s1 (configuration not stated) (HT29 colon).
Reply | > 100 µM

Ask | Give measured TGI for "O=C(O)/C(=C/c1c(O)ccc2ccccc12)c1csc(-c2nc(/C(=C\c3c(O)ccc4ccccc34)C(=O)O)cs2)n1" (HT29 colon).
Reply | 52.2 µM

Ask | Give measured TGI for "Clc1nc(Cl)c(Cl)c(Cl)n1" (HT29 colon).
Reply | 52.6 µM

Ask | Give measured TGI for "CC(C)c1ccc(/C(C(=O)O)=C(\O)C(=O)O)cc1" (HT29 colon).
Reply | > 100 µM

Ask | Give measured TGI for "CC1(C)[C@@H](Cn2cnc3c(N)ncnc32)CC[C@@]1(C)CO" (HT29 colon).
Reply | > 100 µM

Ask | Give measured TGI for O=C(NCCC(F)(F)C(F)(F)C(F)(F)C(F)(F)F)NC1OC(CO)C(O)C(O)C1O (configuration not stated) (HT29 colon).
Reply | > 100 µM

Ask | Give measured TGI for "COc1cccc(-c2ccc3c4c2O[C@H]2c5[nH]c6ccccc6c5C[C@@]5(O)[C@@H](C3)N(CC3CC3)CC[C@]425)c1" (HT29 colon).
Reply | 3.19 µM

Ask | Give measured TGI for COC(=O)C(C)(N=Cc1ccccc1)c1ccccc1 (configuration not stated) (HT29 colon).
Reply | > 100 µM

Ask | Give measured TGI for CC(=O)OCC1OC(n2cc(F)c(=O)[nH]c2=O)C(N)C(OC(C)=O)C1OC(C)=O (configuration not stated) (HT29 colon).
Reply | > 100 µM

Ask | Give measured TGI for CC(C)CCC[C@@H](C)[C@H]1CCC2C3CC=C4C[C@@H](Oc5c6ccccc6nc6ccccc56)CCC4C3CCC21 (some centres not stated) (HT29 colon).
Reply | > 50 µM

Ask | Give measured TGI for "C/C(=N/NC(=S)Nc1ccccc1Cl)c1cccc(/C(C)=N\NC(=S)Nc2ccccc2Cl)n1" (HT29 colon).
Reply | > 100 µM

Ask | Give measured TGI for "N=c1nnc(=O)c2c(s1)-n1ncc(C(=O)O)c1NN2" (HT29 colon).
Reply | > 100 µM

Ask | Give measured TGI for "CCOc1cc2c(NCCCN(CCO)CCO)ncnc2c(OCC)c1OCC" (HT29 colon).
Reply | > 100 µM

Ask | Give measured TGI for CCCCCC(=O)N[C@@H](c1ccccc1)C(O)C(=O)OC1C[C@@]2(O)C(OC(=O)c3ccccc3)C3[C@](C)(C(=O)[C@H](O)C(=C1C)C2(C)C)C(OC1OCC(O)C(O)C1O)C[C@H]1OC[C@@]31OC(C)=O (some centres not stated) (HT29 colon).
Reply | > 36.8 µM

Ask | Give measured TGI for OCC1OC(n2ccc3c(NO)ncnc32)C(O)C1O (configuration not stated) (HT29 colon).
Reply | 0.94 µM

Ask | Give measured TGI for "COCC(=O)CP(=O)(OC)OC" (HT29 colon).
Reply | > 100 µM

Ask | Give measured TGI for "C(=N\OCc1ccccc1)/c1ncccc1C1OCCO1" (HT29 colon).
Reply | > 100 µM

Ask | Give measured TGI for "CN1CCCN(C)C1c1cc([N+](=O)[O-])ccc1O" (HT29 colon).
Reply | > 100 µM

Ask | Give measured TGI for COC1CC2C=C(C)/C=C/C=C/C(=O)NC(c3ccccc3)C/C=C/CCC(O)CC(=O)C2=C1O (configuration not stated) (HT29 colon).
Reply | 0.854 µM

Ask | Give measured TGI for CCC1C(c2cccc(OC)c2O)c2cc3c(cc2OC1N1CCCC1)OCO3 (configuration not stated) (HT29 colon).
Reply | 37.5 µM

Ask | Give measured TGI for "N#Cc1c(-c2ccccc2)cc(-c2ccc(Nc3nc(Nc4ccc(Cl)cc4)nc(Nc4ccc(Cl)cc4)n3)cc2)nc1N" (HT29 colon).
Reply | 16.5 µM

Ask | Give measured TGI for "COc1ccccc1NC(=O)n1nc(N)c2ccccc21" (HT29 colon).
Reply | > 100 µM

Ask | Give measured TGI for C=C1C(=O)OC2CC1C(O)C/C(C)=C/CC/C(C)=C/C(O)CC2C (configuration not stated) (HT29 colon).
Reply | 4.61 µM

Ask | Give measured TGI for CCOc1cc(NC(C)=O)ccc1C(=O)NN1C(=O)C(Oc2ccccc2)C1c1ccccc1 (configuration not stated) (HT29 colon).
Reply | > 100 µM

Ask | Give measured TGI for "O=C(N=C1SCCN1C(=O)C(C(F)(F)F)C(F)(F)F)C(C(F)(F)F)C(F)(F)F" (HT29 colon).
Reply | > 100 µM

Ask | Give measured TGI for "O=c1[nH]nc(-c2ccccc2)n1/N=C/c1ccncc1" (HT29 colon).
Reply | > 100 µM

Ask | Give measured TGI for "COC1=C(N=[N+]=[N-])C(=O)c2ncccc2C1=O" (HT29 colon).
Reply | 33 µM

Ask | Give measured TGI for "C1CCN(c2nsc(N3CCCCC3)n2)CC1" (HT29 colon).
Reply | > 100 µM

Ask | Give measured TGI for "NC(=O)c1nnc2cc(F)ccc2c1N" (HT29 colon).
Reply | > 100 µM
